Form field: Lym (one value per entry).
# Species on record: Rattus norvegicus
# experiment_summary: Open TG-GATES - Regimen: Daily Repeat
# Assay type: toxicity, organism-based, Sprague-Dawley
# Set-up: regimen Daily Repeat, gender Male, age 6 weeks
# condition_details: in vivo, po, 0 mg/kg, […], tissue Blood, route gavage, dose level Control, time 28 day
All answers are understood in %, so give the number only.

Solved cases below.
- molecule: "CN(C)C(=N)N=C(N)N"
  measurement_kind: "Lym"
  unit_tag: "%"
  measured_result: 78.6
- molecule: "CCC1(c2ccccc2)C(=O)NC(=O)NC1=O"
  measurement_kind: "Lym"
  unit_tag: "%"
  measured_result: 84.4
- molecule: "CC1=C(CC(=O)O)c2cc(F)ccc2/C1=C\\c1ccc([S+](C)[O-])cc1 (stereo unspecified)"
  measurement_kind: "Lym"
  unit_tag: "%"
  measured_result: 79.2

GET /value?item= ClC(Cl)(Cl)Cl [CARBON TETRACHLORIDE] &field=Lym returns 83.8

GET /value?item= CCCCc1oc2ccccc2c1C(=O)c1cc(I)c(OCCN(CC)CC)c(I)c1 &field=Lym returns 78.4

GET /value?item= CC[C@H]1[C@@H]2C[C@H]3[C@@H]4N(C)c5ccccc5[C@]45C[C@@H]([C@@H]2[C@H]5O)N3[C@@H]1O &field=Lym returns 83.8

GET /value?item= OCCOCCN1CCN(C(c2ccccc2)c2ccc(Cl)cc2)CC1 (stereo unspecified) [HYDROXYZINE] &field=Lym returns 79.6

GET /value?item= CCc1oc2ccccc2c1C(=O)c1cc(Br)c(O)c(Br)c1 &field=Lym returns 83.8

====

# Species: Rattus norvegicus
# experiment_summary: Open TG-GATES - Regimen: Single
# Format: toxicity, organism-based, Sprague-Dawley
# Design: regimen Single, gender Male, age 6 weeks
# condition_details: in vivo, po, 0 mg/kg, 9 h, tissue Blood, route gavage, dose level Control
Rule: Mono under 3% gives false (0), otherwise true (1).

Solved cases below.
- compound: "OCCOCCN1CCN(C(c2ccccc2)c2ccc(Cl)cc2)CC1 (stereo not given) [HYDROXYZINE]"
  category_label: "false (0)"
- compound: "CCC1(c2ccccc2)C(=O)NC(=O)NC1=O [PHENOBARBITAL]"
  category_label: "false (0)"
- compound: "CN(C)CCC=C1c2ccccc2COc2ccccc21 [DOXEPIN]"
  category_label: "false (0)"
- compound: "ClC(Cl)(Cl)Cl [CARBON TETRACHLORIDE]"
  category_label: "false (0)"
- compound: "CCc1oc2ccccc2c1C(=O)c1cc(Br)c(O)c(Br)c1 [BENZBROMARONE]"
  category_label: "true (1)"
- compound: "CC1=C(CC(=O)O)c2cc(F)ccc2/C1=C\\c1ccc([S+](C)[O-])cc1 (stereo not given)"
  category_label: "false (0)"

Read the next record carefully.
Problem: Determine whether this compound has Mono no lower than 3%: CC[C@H]1[C@@H]2C[C@H]3[C@@H]4N(C)c5ccccc5[C@]45C[C@@H]([C@@H]2[C@H]5O)N3[C@@H]1O [AJMALINE]
Solution: true (1)

====

# Species: Rattus norvegicus
# experiment_summary: Open TG-GATES - Regimen: Single
# Format: toxicity, organism-based, Sprague-Dawley
# Design: regimen Single, gender Male, age 6 weeks
# condition_details: in vivo, po, 100 mg/kg, 24 h, tissue Kidney, route gavage, dose level Low
Form field: KIDNEY_R (one value per entry).
All answers are understood in g, so give the number only.

Solved cases below.
- compound: "CN(C)CCC=C1c2ccccc2COc2ccccc21 [DOXEPIN]"
  measured_result: 0.9
- compound: "O=NN1CCOCC1 [N-NITROSOMORPHOLINE]"
  measured_result: 1
- compound: "CCC1(c2ccccc2)C(=O)NC(=O)NC1=O [PHENOBARBITAL]"
  measured_result: 1.1

GET /value?item= CN(C)C(=N)N=C(N)N [METFORMIN] &field=KIDNEY_R returns 0.9

Ref: ChEMBL document CHEMBL3885861
